Experiment: Evaluation of solubility in tetrahydrofuran
Format: physicochemical
Conditions: 25° C., {100/(100+X)}×100
Procedure: The thus obtained triphenylamine derivatives HTM-1 to HTM-14 each as the hole transport material were evaluated for the solubility. A small amount of tetrahydrofuran was added to 100 mg of each triphenylamine derivative under the temperature of 25° C. Then, the resulting sample was vibrated and left to stand. This process was repeated to measure the added amount X (mg) of tetrahydrofuran dissolved in the triphenylamine derivative to saturation. […]
property-measured: THF Solubility (%)

Worked cases, answers included:
{"columns": ["molecule", "readout-number"],
 "data": [
  ["COc1ccc(N(c2ccc(/C=C/C=C/c3ccccc3)cc2)c2ccc(/C=C/C=C/c3ccccc3)cc2)c(C)c1 [HTM-6]", 24.5],
  ["CCCCc1ccc(N(c2ccc(/C=C/C=C/c3ccccc3)cc2)c2ccc(/C=C/C=C/c3ccccc3)cc2)cc1 [HTM-10]", 17.8],
  ["CCCCOc1ccccc1N(c1ccc(/C=C/C=C/c2ccccc2)cc1)c1ccc(/C=C/C=C/c2ccccc2)cc1 [HTM-3]", 24.1],
  ["CCOc1cccc(C)c1N(c1ccc(/C=C/C=C/c2ccccc2)cc1)c1ccc(/C=C/C=C/c2ccccc2)cc1 [HTM-2]", 23.5],
  ["C(/C=C/c1ccc(N(c2ccc(/C=C/C=C/c3ccccc3)cc2)c2ccc(Oc3ccccc3)cc2)cc1)=C\\c1ccccc1 [HTM-8]", 21.0]
]}

P = CCOc1cc(C)ccc1N(c1ccc(/C=C/C=C/c2ccccc2)cc1)c1ccc(/C=C/C=C/c2ccccc2)cc1 [HTM-4]
Q = COc1cccc(N(c2ccc(/C=C/C=C/c3ccccc3)cc2)c2ccc(/C=C/C=C/c3ccccc3)cc2)c1 [HTM-13]
Enquiry: Given the listed records, identify the one among P and Q with higher THF Solubility. Selection: enter the item's label.
Return: P

---

test: Evaluation of ionization potential (AC-1 ultraviolet photoelectron analyzer); type: physicochemical; conditions: atmosphere type ultraviolet photoelectron analyzing apparatus AC-1
property-measured: Ionization Potential (eV)

{"columns": ["smiles-str", "Ionization Potential, eV"],
 "data": [
  ["COc1ccc(N(c2ccc(/C=C/C=C/c3ccccc3)cc2)c2ccc(/C=C/C=C/c3ccccc3)cc2)c(OC)c1", 5.33],
  ["C(/C=C/c1ccc(N(c2ccc(/C=C/C=C/c3ccccc3)cc2)c2ccc(Oc3ccccc3)cc2)cc1)=C\\c1ccccc1", 5.48],
  ["CCOc1ccccc1N(c1ccc(/C=C/C=C/c2ccccc2)cc1)c1ccc(/C=C/C=C/c2ccccc2)cc1", 5.38],
  ["Cc1ccc(N(c2ccc(/C=C/C=C/c3ccccc3)cc2)c2ccc(/C=C/C=C/c3ccccc3)cc2)c(C)c1", 5.46],
  ["CCCCOc1ccccc1N(c1ccc(/C=C/C=C/c2ccccc2)cc1)c1ccc(/C=C/C=C/c2ccccc2)cc1", 5.39],
  ["Cc1cccc(C)c1N(c1ccc(/C=C/C=C/c2ccccc2)cc1)c1ccc(/C=C/C=C/c2ccccc2)cc1", 5.55],
  ["COc1ccccc1N(c1ccc(/C=C/C=C/c2ccccc2)cc1)c1ccc(/C=C/C=C/c2ccccc2)cc1", 5.43]
]}

---

Assay: Evaluation of solubility in tetrahydrofuran
Format: physicochemical
Conditions: 25° C., {100/(100+X)}×100
Protocol: The thus obtained triphenylamine derivatives HTM-1 to HTM-14 each as the hole transport material were evaluated for the solubility. A small amount of tetrahydrofuran was added to 100 mg of each triphenylamine derivative under the temperature of 25° C. Then, the resulting sample was vibrated and left to stand. This process was repeated to measure the added amount X (mg) of tetrahydrofuran dissolved in the triphenylamine derivative to saturation. […]
property-measured: THF Solubility (%)

Use the examples below as a reference point.
{"columns": ["compound", "THF Solubility / %"],
 "data": [
  ["CCOc1ccccc1N(c1ccc(/C=C/C=C/c2ccccc2)cc1)c1ccc(/C=C/C=C/c2ccccc2)cc1 [HTM-1]", 25.0],
  ["CCOc1ccc(N(c2ccc(/C=C/C=C/c3ccccc3)cc2)c2ccc(/C=C/C=C/c3ccccc3)cc2)c(C)c1 [HTM-7]", 25.8],
  ["Cc1cccc(C)c1N(c1ccc(/C=C/C=C/c2ccccc2)cc1)c1ccc(/C=C/C=C/c2ccccc2)cc1 [HTM-11]", 11.4],
  ["Cc1ccc(N(c2ccc(/C=C/C=C/c3ccccc3)cc2)c2ccc(/C=C/C=C/c3ccccc3)cc2)c(C)c1 [HTM-9]", 12.3],
  ["COc1ccc(N(c2ccc(/C=C/C=C/c3ccccc3)cc2)c2ccc(/C=C/C=C/c3ccccc3)cc2)cc1 [HTM-12]", 7.5]
]}

P = COc1ccc(N(c2ccc(/C=C/C=C/c3ccccc3)cc2)c2ccc(/C=C/C=C/c3ccccc3)cc2)c(OC)c1 [HTM-5]
Q = COc1ccccc1N(c1ccc(/C=C/C=C/c2ccccc2)cc1)c1ccc(/C=C/C=C/c2ccccc2)cc1 [HTM-14]
Enquiry: Just curious, which one has the larger THF Solubility reading, P or Q ? Choose, then provide that item's label.
Return: P

---

experiment: Evaluation of ionization potential (AC-1 ultraviolet photoelectron analyzer); format: physicochemical; conditions: atmosphere type ultraviolet photoelectron analyzing apparatus AC-1
property-measured: Ionization Potential (eV)

{"columns": ["molecule", "property-measured", "quantity-unit", "readout-number"],
 "data": [
  ["COc1cccc(N(c2ccc(/C=C/C=C/c3ccccc3)cc2)c2ccc(/C=C/C=C/c3ccccc3)cc2)c1 [HTM-13]", "Ionization Potential", "eV", 5.45],
  ["CCOc1cccc(C)c1N(c1ccc(/C=C/C=C/c2ccccc2)cc1)c1ccc(/C=C/C=C/c2ccccc2)cc1 [HTM-2]", "Ionization Potential", "eV", 5.37],
  ["CCOc1cc(C)ccc1N(c1ccc(/C=C/C=C/c2ccccc2)cc1)c1ccc(/C=C/C=C/c2ccccc2)cc1 [HTM-4]", "Ionization Potential", "eV", 5.39],
  ["COc1ccc(N(c2ccc(/C=C/C=C/c3ccccc3)cc2)c2ccc(/C=C/C=C/c3ccccc3)cc2)cc1 [HTM-12]", "Ionization Potential", "eV", 5.43],
  ["COc1ccc(N(c2ccc(/C=C/C=C/c3ccccc3)cc2)c2ccc(/C=C/C=C/c3ccccc3)cc2)c(C)c1 [HTM-6]", "Ionization Potential", "eV", 5.38],
  ["CCCCc1ccc(N(c2ccc(/C=C/C=C/c3ccccc3)cc2)c2ccc(/C=C/C=C/c3ccccc3)cc2)cc1 [HTM-10]", "Ionization Potential", "eV", 5.42],
  ["CCOc1ccc(N(c2ccc(/C=C/C=C/c3ccccc3)cc2)c2ccc(/C=C/C=C/c3ccccc3)cc2)c(C)c1 [HTM-7]", "Ionization Potential", "eV", 5.39]
]}

The origin of these recorded values is patent US9376371B2.
